experiment: in vivo; settings: male, ICR, mouse, po, 10 mg/kg, Tmax, Mean, C5N17B+Ritonavir, PO 10 mg/kg, mean of 3 mice
Assay Metric: Tmax (h)
Quick reminder: number only, in h, skip the unit.

// Tmax value for Cc1cncc(C(=O)N2C[C@H]3CC[C@@H](C2)N3[C@H](c2cccc(F)c2)c2cn(CCc3ccsc3)nn2)c1 [Compound C5N17B] : 2.08

###

assay: in vivo; conditions: male, ICR, mouse, po, 10 mg/kg, Plasma concentration, Mean, C5N17B+Ritonavir, PO 10 mg/kg, 4 h, mean of mice 1#-3#
Assay Metric: concentration at 4 h (ng/mL)
// note: answer is a bare numeric in ng/mL

Form field concentration at 4 h, entry Cc1cncc(C(=O)N2C[C@H]3CC[C@@H](C2)N3[C@H](c2cccc(F)c2)c2cn(CCc3ccsc3)nn2)c1 [Compound C5N17B] : 1750
